tested on: Botrytis cinerea; assay: Antimicrobial activity against Botrytis cinerea by spore germination assay; assay type: functional, organism-based
Active and inactive are the calls of the source. The rule behind the calls is not given here.
Outcome codes: active, inactive

molecule	classification
O=C(O)CCCCc1cccc(=O)o1	inactive
CC(O)CCCc1cccc(=O)o1 (stereo not given)	inactive
CCCCCc1cccc(=O)o1	active
O=c1cccc(CCCCCO)o1	inactive
O=C(O)CCc1cccc(=O)o1	inactive
